{"Molecule": "Nc1cc(-n2cccn2)nc(-c2ccc(Cl)o2)n1", "melting point": "210 to 211 °C"}
{"Molecule": "Nc1nc(Oc2ccccc2)c2ncn(CCC(CO)CO)c2n1", "melting point": "173 to 175 °C"}
{"Molecule": "O=C(Nc1ccc(C=CCN2C(=O)c3ccccc3C2=O)cc1)c1ccccc1-c1ccc(C(F)(F)F)cc1", "melting point": "190 °C"}
{"Molecule": "CCC[C@H](NC(=O)OCc1ccccc1)C(=O)C(N)P(=O)(OC)OC (stereo partly specified)", "melting point": "82 to 84 °C"}
{"Molecule": "N#CCCNC(=O)c1cccc(-c2cccc(Oc3ccc4c(c3)CCC4)n2)c1", "melting point": "122 to 123 °C"}
{"Molecule": "N#CCNC(=O)C(F)(F)F", "melting point": "39 to 40 °C"}
